Provenance of the data: paper PMC3163380

target.or.system: CDK2/CyclinA (Homo sapiens, UniProt P24941)
Construct: hexa-histidine (N); made in house; host or cells: sf21 insect cells (baculovirus)
experiment.notes: CDK2/cyclinA enzymatic activity inhibition assay (32P-ATP, histone H1)
Assay type: biochemical
applied.conditions: mean of at least two independent experiments
Reported log10(IC50) values for a set of compounds
Remember, log10 of IC50, in nM.

Field: example entries. Status: answers known.
smi	log10(IC50)
O=c1[nH]c(Nc2ccc(S(=O)(=O)O)cc2)nc2nc(Nc3ccc(NC(=S)Nc4ccccc4)cc3)nc(-c3ccc(O)cc3O)c12	3.81
O=c1[nH]c(SCc2ccccc2)nc2nc(Nc3ccc(NC(=S)Nc4ccccc4)cc3)nc(-c3ccc(O)cc3O)c12	3.70
Cc1cc(C)nc(NS(=O)(=O)c2ccc(Nc3nc(-c4ccc(O)cc4O)c4c(=O)[nH]c(SCc5ccccc5)nc4n3)cc2)n1	3.45
Cc1nc(Nc2ccc(NC(=S)Nc3ccccc3)cc2)nc2nc(NCc3ccccc3)[nH]c(=O)c12	2.93
O=c1[nH]c(NCc2ccccc2)nc2nc(Nc3ccc(NC(=S)Nc4ccccc4)cc3)nc(-c3ccc(O)cc3O)c12	2.49

Attention now turns to another entry.
Req: Which log10(IC50) value is on record for Cc1cc(C)nc(NS(=O)(=O)c2ccc(Nc3nc(C)c4c(=O)[nH]c(Nc5cccc(Cl)c5)nc4n3)cc2)n1 ?
Resp: 1.70
